Target: T1, TNFR1 (Homo sapiens, UniProt P19438)
T1 chain: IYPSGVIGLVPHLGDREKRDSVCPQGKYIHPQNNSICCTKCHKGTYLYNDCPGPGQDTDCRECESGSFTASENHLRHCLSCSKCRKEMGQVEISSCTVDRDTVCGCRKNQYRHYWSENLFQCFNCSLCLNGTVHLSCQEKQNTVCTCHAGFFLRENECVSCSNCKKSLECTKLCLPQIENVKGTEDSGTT
Test: yeast display SC50
property_name: apparent Kd (screen) (nM)

A98D (designed binder) MTLQELLREEALRRAEAEAFRYALELLAEKFPEQKEYLLDLAEEIESQIRSLSGVDVEDVRKFLDKEWAWVKELLAEHPAELAEVEAARAARLAELRDEVEAKVAA | 0.718

(a) R8L (designed binder) MTLQELLLEEALRRAEAEAFRYALELLAEKFPEQKEYLLDLAEEIESQIRSLSGVDVEDVRKFLDKEWAWVKELLAEHPAELAEVEAARAARLAELRAEVEAKVAA
(b) A19R (designed binder) MTLQELLREEALRRAEAERFRYALELLAEKFPEQKEYLLDLAEEIESQIRSLSGVDVEDVRKFLDKEWAWVKELLAEHPAELAEVEAARAARLAELRAEVEAKVAA
(c) F31Y (designed binder) MTLQELLREEALRRAEAEAFRYALELLAEKYPEQKEYLLDLAEEIESQIRSLSGVDVEDVRKFLDKEWAWVKELLAEHPAELAEVEAARAARLAELRAEVEAKVAA
Kindly order the items shown according to apparent Kd (screen), from the highest value down. Kindly provide the labels arranged according to the requested ordering.
b, a, c
(b: 3.99 nM, a: 0.869 nM, c: 0.593 nM)
